In this section, each of the molecules is paired with its reported Papp A→B.
assay: Membrane permeability test using Caco-2 cells with preincubation; assay type: in vitro ADME; conditions: Caco-2; preincubation 20 to 24 hours; Apical FaSSIF/HBSS pH 6.0, Basal HBSS 4% BSA pH 7.4; 180 minutes; read-out: Caco2 Papp
Starred links: 1 amine or outer side, 2 acyl side, 3 side chain; linkers in the order of their positions; H or OH if unused. Positions of bridges follow the written chain, without caps; N, C: chain ends. Non-standard residues stand in square brackets, D forms with d. Residues, ends and D or L forms follow the SMILES beside them. *: point of attachment. NMedβ3hAla = C[C@H](CC(=O)[*:2])N(C)[*:1]; NMeF = CN[C@@H](Cc1ccccc1)C(=O)O; NMeI = CC[C@H](C)[C@H](NC)C(=O)O; NMeT = CN[C@H](C(=O)O)[C@@H](C)O; NMeL = CN[C@@H](CC(C)C)C(=O)O; NMeV = CN[C@H](C(=O)O)C(C)C; d(β3hA) = C[C@@H](N)CC(=O)O; NMeAbu = CC[C@H](NC)C(=O)O; NMeA = CN[C@@H](C)C(=O)O; Piperidide = C1CCN(*)CC1; Abu = CC[C@H](N)C(=O)O; Sar = CNCC(=O)O; tBu = CC(C)(C)*
Give the value, in units of ×10⁻⁶ cm/s, as a plain number.

Inquiry: Write down Papp A→B measured for item CC[C@H](C)[C@@H]1NC(=O)[C@H](CC(C)C)N(C)C(=O)[C@H](CC(C)C)NC(=O)[C@H](C)N(C)C(=O)C[C@@H](C)NC(=O)[C@H](CC(C)C)NC(=O)[C@H](CC(C)C)N(C)C(=O)CN(C)C(=O)[C@H](C(C)C)NC(=O)[C@H]([C@@H](C)CC)N(C)C(=O)[C@H](CC(C)C)N(C)C(=O)[C@H](C)NC(=O)[C@H](Cc2ccccc2)N(C)C1=O [pd127] (cyclo(A[NMeL][NMeI]V[Sar][NMeL]L[d(β3hA)][NMeA]L[NMeL]I[NMeF]))
Reply text: 0.36

Inquiry: Write down Papp A→B measured for item CC[C@@H]1NC(=O)[C@H](C(C)C)N(C)C(=O)[C@H](CC(C)C)NC(=O)[C@H](CC(C)C)N(C)C(=O)[C@H]([C@@H](C)O)NC(=O)CN(C)C(=O)[C@H]([C@@H](C)CC)NC(=O)[C@H](Cc2ccccc2)N(C)C(=O)[C@H](CC(C)C)N(C)C(=O)C[C@@H](C(=O)N2CCCCC2)NC(=O)[C@H](Cc2ccccc2)N(C)C(=O)[C@H](COC(C)(C)C)NC(=O)[C@@H]2CCCN2C(=O)[C@H]([C@@H](C)CC)NC1=O [pd031] ([NMeL][NMeF]I[Sar]T[NMeL]L[NMeV][Abu]IPS(tBu)[NMeF]D-Piperidide; lactam N-14)
Reply text: 0.04

Inquiry: Write down Papp A→B measured for item CC[C@@H]1NC(=O)[C@H](C(C)C)N(C)C(=O)[C@H](C)N(C)C(=O)[C@H](C(C)C)N(C)C(=O)[C@H](CC)N(C)C(=O)[C@H](Cc2ccccc2)N(C)C(=O)[C@H]([C@@H](C)O)N(C)C(=O)CNC(=O)[C@H](CC(C)C)N(C)C(=O)[C@H](C(C)C)NC(=O)[C@H](COC(C)(C)C)NC(=O)[C@H](CC(C)C)N(C)C(=O)[C@@H](C(C)C)NC(=O)C[C@@H](C)N(C)C1=O [pd068] (cyclo([Abu][NMedβ3hAla][dV][NMeL]S(tBu)V[NMeL]G[NMeT][NMeF][NMeAbu][NMeV][NMeA][NMeV]))
Reply text: 0.27
